Test system: NCI-H522
Test: NCI tumour cell line growth inhibition, 48 h
The source made the active and inactive calls. Rule as the data show it: active = GI50 up to about 1.1 µM and inactive = higher.
Hi! Could you answer with just one of these? Y (active), N (inactive)

Q) // return assay outcome for COc1cc2nc3n(c(=O)c2cc1OC)CCCCC3
A) N

Q) Test call for this molecule, please: COc1ccc(CN2C(=O)CCC/C=C\[C@H]2CI)cc1
A) N

Q) Dear all, I need the recorded test outcome for S=c1c2ccccc2c(=S)n2n1CC=CC2 , thank you.
A) N

Q) Assay outcome for C#CCNC(Cc1ccccc1)C(=O)O (stereo unspecified) : what was it?
A) N

Q) Could you check what this test reported for OC(C/C(=N\N1CCCCC1)c1cccs1)(C(F)(F)F)C(F)(F)F ?
A) N

Q) Record request — test call for CS(=O)(=O)ON1C(=O)c2ccc(N)cc2C1=O
A) N

Q) Just curious, what result did CCOC(=O)C(=[N+]=[N-])C(=O)CN1C(=O)c2ccccc2C1=O get here?
A) N

Q) Please let me know the test result on file for Nc1ccn([C@@H]2C=C(CO)[C@@H](O)[C@H]2O)c(=O)n1 .
A) Y

Q) What did the test return for CC(=O)O[C@H]1C(=O)[C@@]2(C)[C@H]([C@H](OC(=O)c3ccccc3)[C@]3(O)C[C@H](OC(=O)[C@H](O)[C@@H](NC(=O)C(C)(O)C(C)O)c4ccccc4)C(C)=C1C3(C)C)[C@]1(OC(C)=O)CO[C@@H]1C[C@@H]2O (stereo partly specified) ?
A) Y

Q) What did this assay record as the result for N#Cc1c(N2CCCC2)ncn(Cc2ccccc2)c1=O ?
A) N

Q) Hello, I am checking results. What call was entered for COc1cccc(N2CCc3c(C)c(C#N)c4nc5ccccc5n4c32)c1 ?
A) N

---

Test system: KM12
Experiment: NCI tumour cell line growth inhibition, 48 h
Activity calls are given as the source filed them. No stated cut-off is given here; in the data, active = GI50 up to about 1.1 µM and inactive = higher.
Hi there, use one of these labels in your reply, thanks! active, inactive

Q) What did the test return for O=c1[nH]/c(=C/c2ccc(OCc3ccccc3)cn2)c(=O)[nH]/c1=C/c1ccc(Cl)cc1 ?
A) active

Q) Recorded call for O=C(O)c1ccccc1/C=C1\Cc2cc3c(cc2C1=O)CCC3 ?
A) inactive

Q) Returns: the outcome recorded for O=C(N/C(=C\c1cccc([N+](=O)[O-])c1)c1nc2c3c(ccc2[nH]1)C(=O)c1ccccc1C3=O)c1ccccc1 in this assay.
A) inactive

Q) In this assay, the call recorded for CCCCCCCCCC[C@H](O)[C@H](O)CC[C@@H](O)[C@H]1CC[C@@H]([C@H]2CC[C@H](CCCCCCC[C@@H](O)CC3=C[C@H](C)OC3=O)O2)O1 was what?
A) inactive

Q) // outcome(item) with item = NCCCNCCS
A) inactive

Q) Could you check what this test reported for COC(=O)CC[C@@H](NC(=O)C(C)NC(=O)COC1C(O)C(COC(=O)CCCCCCCCCCNC(=O)c2ccc([N+](=O)[O-])c3[nH]c4cc(Br)ccc4c(=O)c23)OC(OCc2ccccc2)C1NC(C)=O)C(N)=O (stereo partly specified) ?
A) inactive

Q) Hi, sorry to bother you, what did the test record for CC[C@@]1(OC(=O)C(N)CCCCN)C(=O)OCc2c1cc1n(c2=O)Cc2cc3ccccc3nc2-1 (stereo partly specified) ?
A) active

Q) Recorded test outcome, item Cc1c2c(n(Cc3ccccn3)c1C)NN=C(C#N)S2(=O)=O
A) inactive

Q) Recorded call for C=C1C(C(O)C[C@H](C)C2O[C@@]3(CCCCO3)CCC2C)O[C@@H]2CCC3(CCC(/C=C/[C@@H](C)C4CC(C)=CC5(O4)O[C@H](C[C@](C)(O)C(=O)O)CCC5O)O3)OC2[C@@H]1O (stereo partly specified) ?
A) active

Q) Fill in: this test's call for COC(=O)C1CC2(CCC1=O)Cc1ccccc1C2=O (stereo unspecified) is ___
A) inactive

Q) Please let me know the test result on file for COc1ccc(Br)c(/C=N\c2cccc3cc(OC)c(OC)cc23)c1 .
A) inactive

Q) Assay result, entry Cc1cc(/N=C/c2ccc(F)cc2)n(-c2ccccc2)n1 — outcome?
A) inactive

Q) So what was the verdict on O=C1/C(=C/c2ccc(Cl)cc2)CCCc2ccccc21 in this test?
A) inactive

Q) Record request — test call for CCC(c1ccc2cc(O)ccc2c1)C(C)(C)C(=O)O (stereo unspecified)
A) inactive

Q) Field: outcome | Entry: COc1ccc2c(c1)c(=O)c1c(NCCN(C)C)ccc3nnn2c31
A) active

Q) Lab log entry: CC(=O)[C@@H]1[C@@H](OC(=O)CCC(C)COC2OC(CO)C(O)C(O)C2O)C[C@H]2[C@@H]3CC=C4C[C@@H](OC5OC(CO)C(OC6OC(C)C(O)C(O)C6O)C(O)C5OC5OC(C)C(O)C(O)C5O)CC[C@]4(C)[C@H]3CC[C@]12C (stereo partly specified) — outcome as called in the assay?
A) inactive

---

For each entry below, report its GI50 value.
Test system: MCF7
Experiment: NCI tumour cell line growth inhibition, 48 h
Activity calls are given as the source filed them. Rule as the data show it: active = GI50 up to about 1.1 µM and inactive = higher.

Q) # return recorded GI50 for entry CC1(C)O[C@@H]2[C@@H](COC(=O)c3ccccc3)C[C@@H](C#N)[C@@H]2O1
A) > 100 µM (inactive)

Q) Give the measured GI50 for CCOC(=O)c1csc(NC(=O)CCN(CC)CC)n1
A) 26 µM (inactive)

Q) Tell me its GI50 given Cc1c2c(cc3c1[nH]c1ccccc13)C=NCC2 as the entry.
A) 2.92 µM (inactive)

Q) Provide one value: measured GI50 of Oc1nc2nc3ccccc3nc2nc1O
A) > 100 µM (inactive)

Q) Return GI50 for the following compound: CCOC(=O)/C(C(=O)c1ccc([N+](=O)[O-])cc1)=C(\NS(=O)(=O)c1cc(C)c(Cl)cc1[S-])[n+]1ccc(N(C)C)cc1
A) 40.3 µM (inactive)

Q) Supply measured GI50 of CC(NC(=O)CNP(=O)(c1ccccc1)c1ccccc1)C(=O)NC(Cc1ccccc1)C(=O)OCc1ccccc1 (stereo not given) in your reply.
A) 24.6 µM (inactive)

Q) Fill in reported GI50 for this entry: COc1ccc(Br)c(/C=N\c2cccc3cc(OC)c(OC)cc23)c1
A) 2.33 µM (inactive)

Q) Let me know recorded GI50 for COc1cn2c(cc1=O)COc1ccc(-c3ccccc3)cc1-2 , thanks.
A) 21.1 µM (inactive)

Q) Quick one: give measured GI50 for CS(=O)(=O)C[S+]([O-])C[S+]([O-])C[S+]([O-])CC(NC(=O)CCC(N)C(=O)O)C(=O)O (stereo not given)
A) > 100 µM (inactive)

Q) Please report GI50 for the following compound: Cc1ccc2cccc(-c3cccc4ccccc34)c2n1
A) > 10 µM (inactive)

Q) Give the reported value of GI50 for this record: NC(=O)C(c1ccccc1)N1OC2C(=O)N(Cc3ccccc3)C(=O)C2C1c1cccc(Oc2ccc(Cl)cc2)c1 (stereo not given)
A) 28 µM (inactive)

Q) Tell me measured GI50 for COc1nc(Cl)c(Cl)c(Cl)n1.COc1nc(Cl)nc(Cl)c1Cl please.
A) 2.62 µM (inactive)

Q) Supply recorded GI50 for CC(C)(C)CN1[C@@H]2CCCC[C@H]2N(CC(C)(C)C)P1(=O)Cc1ccccc1 here.
A) 12.8 µM (inactive)

Q) State, in one line, measured GI50 of CC1C/C(=C\c2ccc(OC(=O)C(C)(C)C)cc2)C(=O)/C(=C/c2ccc(OC(=O)C(C)(C)C)cc2)C1 (stereo not given)
A) 45.5 µM (inactive)

Q) State, in one line, measured GI50 of CCc1cc2c(c3c1CCCC3=O)CC1(Cc3ccc(C(=O)OC)cc3C1)C2 (stereo not given)
A) 24 µM (inactive)

Q) Look up and state reported GI50 for N#CCCC1(CCC#N)CCCCCCCCC(CCC#N)(CCC#N)C(=O)C1=O
A) > 100 µM (inactive)

Q) Tell me measured GI50 for COc1ccc(-c2oc3cc(O)c(OC)c(O)c3c(=O)c2O)cc1 please.
A) 4.44 µM (inactive)

Q) Check the records and state GI50 for CCOC(=O)C(NC(=O)CC)(Nc1ccccc1OC)C(F)(F)F (stereo not given)
A) > 100 µM (inactive)

Q) Kindly indicate its recorded GI50. Item: COC(=O)C1(C)C=CC(=O)C2(C)C1C(O)C1OC3CC(c4ccoc4)C(C)=C3C1(C)C2CC(=O)O (stereo not given)
A) > 100 µM (inactive)

Q) Name the recorded GI50 of the compound listed here: Cc1ccc(S(=O)(=O)NCCCCC(N)C(=O)O)cc1 (stereo not given)
A) > 100 µM (inactive)

---

System: HCC 2998
Assay: NCI tumour cell line growth inhibition, 48 h
The source made the active and inactive calls. No stated cut-off is given here; in the data, active = GI50 up to about 1.1 µM and inactive = higher.
Write down the outcome that applies. Available outcomes: active, inactive

Q) Lab log entry: O=C(N(O)c1ccccc1Cl)C(O)(c1ccccc1)c1ccccc1 — outcome as called in the assay?
A) inactive

Q) Which outcome was entered for the molecule Cc1ccc(/C=N/NS(=O)(=O)c2ccccc2)cc1 in this test?
A) inactive

Q) Which result was noted for this molecule in the test: CC1(C)OC(C[C@]2(C#N)C[C@H](CCl)OC(C)(C)O2)C[C@@H](C[C@]2(C#N)C[C@H](CCl)OC(C)(C)O2)O1 (stereo partly specified)
A) inactive

Q) Kindly provide the recorded test outcome for the following molecule: CN(C)c1ccc(/C=C(\NC(=O)c2ccccc2)C(=O)NCC(=O)O)cc1
A) inactive

Q) GET /call?item= Oc1cccnc1CN1CCCCC1 returns the recorded outcome of this test.
A) inactive

Q) What classification did O=c1/c(=C/c2ccco2)sc2nc3ccccc3n12 end up with in this test?
A) inactive

Q) What was the test verdict on c1cc(NC2=NCCO2)c2c(c1)OCO2 ?
A) inactive

Q) Which result was noted for this molecule in the test: O=C(NC(=O)c1ccccc1[N+](=O)[O-])Nc1ccc(Oc2ncc(Cl)cn2)c([N+](=O)[O-])c1
A) active

Q) // return assay outcome for COC1OC(C)C2OC(C)(C)OC2C1OC(C)=O (stereo unspecified)
A) inactive

Q) Which outcome did this test record for the molecule N/N=C(\c1nc2ccc(Cl)cc2nc1O)C(O)c1ccc(Cl)c(Cl)c1 (stereo unspecified) ?
A) inactive

Q) What did this assay record as the result for CO[C@@](c1ccccc1)(c1nc(C#N)c(N)o1)C(F)(F)F ?
A) inactive
